Sourced from patent US8435978B2

- experimentalSystem: B1R receptor of the rat (Rattus norvegicus, UniProt P97583)
- Construct: host or cells: CHO K1 cells (Chinese hamster ovary), stably transfected
- Sequence (P97583 whole entry): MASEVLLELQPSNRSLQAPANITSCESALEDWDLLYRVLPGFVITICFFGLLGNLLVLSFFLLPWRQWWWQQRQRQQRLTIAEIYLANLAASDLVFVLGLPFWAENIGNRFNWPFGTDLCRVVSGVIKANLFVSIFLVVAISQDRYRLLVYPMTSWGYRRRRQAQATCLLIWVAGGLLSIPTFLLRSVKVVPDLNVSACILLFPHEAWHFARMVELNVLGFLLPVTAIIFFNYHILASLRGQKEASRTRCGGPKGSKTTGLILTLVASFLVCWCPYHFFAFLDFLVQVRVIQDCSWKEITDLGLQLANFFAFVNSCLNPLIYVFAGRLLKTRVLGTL
- methodNotes: Functional study on the bradykinin receptor 1 (B1R), FLIPR Ca2+ assay, rB1R cells
- Format: cell-based
- particulars: CHO-K1, test substance 10 μM, agonist Des-Arg9-bradykinin 100 nM, % inhibition compared with the maximum achievable inhibition, read-out: B1R Antagonism, rat [10 μM] % Inhibition
measure: inhibition at 10 µM (%)
State just the number; it will be interpreted in %.

A selection of reference data follows.
>  <compound>
COc1cc(C)c(S(=O)(=O)N2CCCC2COCC(=O)NCc2ccc(CN3CCCCC3)cc2)c(C)c1 (stereo not shown) [Example 1]

>  <measure>
inhibition at 10 µM

>  <experimentalResult>
107

$$$$
>  <compound>
COc1cc(C)c(S(=O)(=O)N2CCCC2COCC(=O)NCC(c2ccccc2Cl)N2CCCC2)c(C)c1 (stereo not shown) [Example 502]

>  <measure>
inhibition at 10 µM

>  <experimentalResult>
103

$$$$
>  <compound>
COc1cc(C)c(S(=O)(=O)N2CCCCC2COCC(=O)NCCN2CCCC2)c(C)c1 (stereo not shown) [Example 343]

>  <measure>
inhibition at 10 µM

>  <experimentalResult>
100

$$$$

Pending compound:
# input Sample O=C(COCC1CCCN1S(=O)(=O)c1c(Cl)cccc1Cl)N1CCC(N2CCCCC2)CC1 (stereo not shown) [Example 337] — what was its inhibition at 10 µM?
# output 104
